meta.source: PubChem BioAssay AID651703

target-entity: Transforming acidic coiled-coil-containing protein 3 (Homo sapiens) (UniProt Q9Y6A5)
procedure-text: inhibition of ARNT PAS-B/TACC3 complex formation – biochemical, AlphaScreen, cherry-picked samples, confirmation (AID 651703);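 further: TACC3 partner is the GST-tagged E629A mutant dimer; hits lower the signal meaning they disrupt ARNT binding to TACC3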
condition-summary: AlphaScreen His-ARNT PAS-B / GST-TACC3 binding, luminescence; series mostly up to 68 µM
Hit rate of the full screen: of about 1,200 compounds, about 970 (81%) were called active. So high a share suggests a set chosen from earlier hits. A selection follows. Measured potencies and affinities stand elsewhere.

- molecule: "O=C(c1cc(-c2ccccc2)on1)N1CCC(N2CCCC2)CC1"
  outcome: "inactive"
- molecule: "S=c1[nH]nc(-c2cc3c(s2)-c2ccccc2CC3)o1"
  outcome: "inactive"
- molecule: "Cc1cccc(Oc2nc(-c3ccccn3)nc3ccccc23)c1"
  outcome: "inactive"
- molecule: "CCN(/N=C/c1ccccc1)c1cc(=O)n(C)c(=O)[nH]1"
  outcome: "inactive"
- molecule: "O=C(NC1Cc2ccccc2C1)c1cc(-c2ccccc2)on1"
  outcome: "inactive"
- molecule: "CC(=O)c1cccc(NC(=O)N2CCCC2C(=O)NCc2ccccc2)c1 (configuration not stated)"
  outcome: "inactive"
- molecule: "O=C(c1cc(-c2ccccc2)on1)N1CCN(c2ccncc2)CC1"
  outcome: "inactive"
- molecule: "Cc1cc(F)ccc1NS(=O)(=O)c1cccc2nsnc12"
  outcome: "inactive"
- molecule: "Cc1ccc(C2CCN(C(=S)Nc3cccc(C)c3)C2)cc1 (configuration not stated)"
  outcome: "inactive"
- molecule: "O=C(NN=C1CCCC1)c1ccc(O)cc1O"
  outcome: "inactive"
- molecule: "Oc1c(Br)cccc1/C=N/c1ncn[nH]1"
  outcome: "inactive"
- molecule: "O=C(CCC(=O)c1cccs1)OCc1nnc(-c2ccccc2)o1"
  outcome: "inactive"

---

target-entity: Transforming acidic coiled-coil-containing protein 3 (Homo sapiens) (UniProt Q9Y6A5)
procedure-text: inhibition of ARNT PAS-B/TACC3 complex formation – biochemical, AlphaScreen, cherry-picked samples, confirmation (AID 651703);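 further: TACC3 partner is the GST-tagged E629A mutant dimer; hits lower the signal meaning they disrupt ARNT binding to TACC3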
condition-summary: AlphaScreen His-ARNT PAS-B / GST-TACC3 binding, luminescence; series mostly up to 68 µM
About 970 (81%) of roughly 1,200 compounds were called active. So high a share suggests a set chosen from earlier hits. These entries were drawn from the full list. Potency and affinity values are given separately.

- molecule: "C#CCOCCOCCOCCNc1nc(N2CCN(C(=O)[C@H](CCCCN)n3cc([C@@H](N)CC(N)=O)nn3)CC2)nc(N2CCN(C(=O)[C@H](CCCCN)n3cc([C@@H](N)CC(N)=O)nn3)CC2)n1"
  target-entity: "Transforming acidic coiled-coil-containing protein 3 (Homo sapiens) (UniProt Q9Y6A5)"
  outcome: "inactive"
- molecule: "C#CCOCCOCCOCCNc1nc(N2CCN(C(=O)C([C@@H](C)O)n3cc([C@@H](N)CCCCN)nn3)CC2)nc(N2CCN(C(=O)C([C@@H](C)O)n3cc([C@@H](N)CCCCN)nn3)CC2)n1 (stereo partly drawn)"
  target-entity: "Transforming acidic coiled-coil-containing protein 3 (Homo sapiens) (UniProt Q9Y6A5)"
  outcome: "inactive"
- molecule: "Oc1cccc(CN2CCOCC2)c1O"
  target-entity: "Transforming acidic coiled-coil-containing protein 3 (Homo sapiens) (UniProt Q9Y6A5)"
  outcome: "inactive"
